- measurement_protocol: qHTS assay for re-activators of p53 using a Luc reporter: Hit Validation; further: nearly all actives have a fitted effect of over 75% in size; further: potency means the concentration at half of the fitted maximal effect; on activation: 0% is about no effect
- particulars: p53-responsive luciferase reporter cells, luminescence, H1299 line expressing heat-sensitive Ala138Val p53; series mostly up to 46.1 µM
Inconclusive results are not listed. Activity calls are given as the source filed them. The call rests on the fitted dose curve; in most records, active means well fitted activation curve with a large enough effect; inconclusive means small, poorly fitted or top-dose-only effect; inactive means no such curve, though single readings can be large or run the other way.
readout: Potency

Example entries and their recorded answers appear below.
> print(dat)
                                   compound  readout        test.result
1        c1ccc(-n2ncc3c(N4CCCCC4)ncnc32)cc1  Potency   1160 nM (active)
2      COc1ccc2oc(C(=O)Nc3nnc(C)s3)c(C)c2c1  Potency   1840 nM (active)
3              C=CCn1c(P(C)(=O)O)nc2ccccc21  Potency           inactive
4                Fc1cccc(NCc2cn3ccccc3n2)c1  Potency   3260 nM (active)
5           c1nc(C2CCCCC2)cc2cc3c(cc12)OCO3  Potency   6510 nM (active)
6  Cc1cc(C(=O)COC(=O)c2ccc(O)cc2)c(C)n1CC(F)(F)F  Potency  20600 nM (active)
7      CCC(=O)c1ccc(OC(=O)Cc2ccc(OC)cc2)cc1  Potency           inactive
8           CCc1ccc(NC(=O)c2cnn3ccccc23)cc1  Potency    920 nM (active)

For every item in the list below, what is its measured Potency?
1. O=C(Nc1ccc(Cl)cc1)Nc1nnc(SCc2ccccc2)s1
2. O=C(CSc1ccccc1)Nc1ccc(-c2nc3ccccc3[nH]2)cc1
3. COc1ccc(C(C#N)N2N=C(c3ccccc3)CC2c2ccccc2)cc1OC (centres undefined)
4. N#Cc1nc(COc2ccccc2)oc1N1CCOCC1

1: inactive; 2: inactive; 3: inactive; 4: inactive

For every item in the list below, what is its measured Potency?
1. CCOC(=O)C1=C(C)Nc2ncnn2C1c1c[nH]c2ccccc12 (centres undefined)
2. CCOc1ccc2cc(C#N)c(SCC(=O)OC)nc2c1
3. Cc1cc(/C=C2/C(=O)NN(c3ccccc3)C2=O)c(C)n1-c1cccc(O)c1
4. CCOc1ccc(N2C(=O)c3ccccc3NC2(C)CC)cc1 (centres undefined)
5. Cc1ccc2nc(NC(=O)c3ccc(Cl)s3)sc2c1
6. OC1(C2(O)CC(c3ccccc3)ON2)CCCCC1 (centres undefined)
7. CCCC(=O)NC(c1cccs1)c1cc([N+](=O)[O-])c2cccnc2c1O (centres undefined)
8. O=C(NOCc1ccccc1)c1ccc(Cl)cc1

1. inactive
2. 2910 nM (active)
3. 10300 nM (active)
4. 9200 nM (active)
5. 731 nM (active)
6. inactive
7. inactive
8. 1840 nM (active)

For every item in the list below, what is its measured Potency?
1. Cn1cc(Cl)c(C(=O)Nc2nc3ccccc3s2)n1
2. CC(C)C(=O)NC(c1cccs1)c1cc([N+](=O)[O-])c2cccnc2c1O (centres undefined)
3. O=C(Oc1c(Cl)cc(Cl)c2cccnc12)c1cccc([N+](=O)[O-])c1

231 nM (active)
inactive
inactive

----------
- measurement_protocol: qHTS assay for re-activators of p53 using a Luc reporter: Hit Validation; further: nearly all actives have a fitted effect of over 75% in size; on activation: 0% is about no effect
- particulars: p53-responsive luciferase reporter cells, luminescence, H1299 line expressing heat-sensitive Ala138Val p53; series mostly up to 46.1 µM
- Experimental: The p53 tumor suppressor plays a key role in suppression of tumorigenesis and in human carcinogenesis. It is frequently found inactivated in human cancers, mainly by point mutation. […] In order to find activators to reactivate this important protein, a cell-based screen for p53-dependent luciferase-reporter expression was developed. […] At assay temperate, 37 deg C, basal reporter expression is very low and after the addition of detection reagent, a luminescent read-out is carried out. […]
Inconclusive results are not listed. Activity calls are given as the source filed them. Calls come from the whole dose curve; as a rule, active = well fitted activation curve with a large enough effect; inconclusive = small, poorly fitted or top-dose-only effect; inactive = no such curve, though single readings can be large or run the other way.
Give your call using only these classes: 1 = active, -1 = inactive

> print(dat)
                                   compound  label
1  COc1ccc(N2C(=O)CC(Cc3ccc(Br)cc3)C2=O)cc1 (stereo unspecified)     -1

Each compound tested received a call. Report the one for CCOP(=O)(OCC)C(NC(=O)Nc1ccccc1)C(N)=O (stereo unspecified) .
-1

Each compound tested received a call. Report the one for CN(/N=C/c1ccc2c(c1)OCO2)c1ccccc1 .
1

Each compound tested received a call. Report the one for Cc1ccc(-c2cc(-c3ccccc3Cl)[nH]n2)c(O)c1 .
1
